remaining activity at 10 µM by entry:
Target: PIK3R3(SH2dom.C-term.) (Homo sapiens)
Construct: SH2dom.C-term. denotes SH2 domain closest to C-terminus of protein; made in house; host or cells: HEK293 (transient transfection, unpurified extract)
Assay: biochemical
Format: binding
Conditions: read-out: percent of DMSO vehicle control
Non-standard residues stand in square brackets, D forms with d. Residues, ends and D or L forms follow the SMILES beside them. *: point of attachment. pY = N[C@@H](Cc1ccc(OP(=O)(O)O)cc1)C(=O)O; Caffeoyl = O=C(/C=C/c1ccc(O)c(O)c1)*
Reply with just the number (in %).

Some molecules with recorded remaining activity at 10 µM:
>  <molecule>
NC(=O)CC[C@H](NC(=O)[C@@H]1CC[C@@H]2CCN(C(=O)CCCCCC#Cc3cccc4c3CN(C3CCC(=O)NC3=O)C4=O)C[C@H](NC(=O)c3cc4cc(C(F)(F)P(=O)(O)O)ccc4[nH]3)C(=O)N21)C(=O)NC(c1ccccc1)c1ccccc1 (stereo partly shown)

>  <u>
%

>  <experimentalValue>
57.8

$$$$
>  <molecule>
CC[C@H](C)[C@H](NC(=O)[C@H](CCC(=O)O)NC(=O)[C@H](CCC(=O)O)NC(=O)[C@H](Cc1ccc(OP(=O)(O)O)cc1)NC(=O)/C=C/c1ccc(O)c(O)c1)C(=O)N[C@@H](CCC(=O)O)C(=O)O [Caffeic acid-pYEEIE] (Caffeoyl-[pY]EEIE-OH)

>  <u>
%

>  <experimentalValue>
0.8

$$$$
>  <molecule>
CC(=O)N[C@@H](Cc1ccc(CP(=O)(O)O)cc1)C(=O)NC1(C(=O)N[C@@H](CC(N)=O)C(=O)NCCCc2c(O)ccc3ccccc23)CCCCC1

>  <u>
%

>  <experimentalValue>
0

$$$$

Next item in the queue.
In: Identify the reported remaining activity at 10 µM for the following entry. CC(=O)N1CC[C@H]2CC[C@@H](C(=O)N[C@@H](CCC(N)=O)C(=O)NC(c3ccccc3)c3ccccc3)N2C(=O)[C@@H](NC(=O)c2cc3cc(C(F)(F)P(=O)(O)O)ccc3[nH]2)C1
Out: 137
